study.target: 15-hydroxyprostaglandin dehydrogenase [NAD(+)] (Homo sapiens, UniProt P15428)
Sequence (P15428 whole entry): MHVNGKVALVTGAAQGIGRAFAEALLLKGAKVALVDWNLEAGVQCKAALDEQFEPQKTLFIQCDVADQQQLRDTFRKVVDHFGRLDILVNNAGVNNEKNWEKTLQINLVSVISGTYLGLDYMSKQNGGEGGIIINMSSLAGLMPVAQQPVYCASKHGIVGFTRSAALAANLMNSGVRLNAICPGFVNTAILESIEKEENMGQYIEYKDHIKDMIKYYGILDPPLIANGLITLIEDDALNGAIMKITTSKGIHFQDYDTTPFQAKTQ
assay.details: In Vitro Assay: Each compound for inhibiting enzymatic activity of recombinant 15-PGDH in an in vitro assay.
pIC50: −log10 of the molar value.
Classification field: enter satisfied for pIC50 values not below 8, not satisfied for values below it.

Query: Form field: pIC50 at least 8? Entry: CCCC[S+]([O-])c1sc2nc(-c3nccs3)cc(-c3ccc(OCC(=O)O)cc3)c2c1N (configuration not stated)
Result: satisfied

Query: Also CCCC[S+]([O-])c1sc2nc(-c3nccs3)cc(-c3cccc(C(=O)NCCN(C)C)c3)c2c1N (configuration not stated) ?
Result: not satisfied

Query: Try the compound CCCC[S+]([O-])c1sc2nc(-c3nccs3)cc(-c3ccc(CN(C)C)cc3)c2c1N (configuration not stated)
Result: satisfied

Query: Now consider C=CCNC(=O)c1cccc(-c2cc(-c3nccs3)nc3sc([S+]([O-])CCCC)c(N)c23)c1 (configuration not stated) .
Result: satisfied

Query: Another: CCCC[S+]([O-])c1sc2nc(-c3nccs3)cc(-c3cccc(C(=O)N4CCN(C)CC4)c3)c2c1N (configuration not stated)
Result: not satisfied

Query: # repeat for CCCC[S+]([O-])c1sc2nc(-c3nccs3)cc(-c3cccc(C(=O)O)c3)c2c1N (configuration not stated)
Result: not satisfied
